target: human TRPV4 (Homo sapiens); construct: host or cells: tetracycline-inducible Flp-In T-REx 293 cells; assay: Hypotonicity-induced Ca2+ influx (Fluo-4, FDSS); format: cell-based; conditions: Flp-In T-REx 293 cells stably expressing human TRPV4, compounds listed by potency bin (<10 nM Tables 96-1/96-2, <3 nM Table 97)
Sequence (Q9HBA0 whole entry): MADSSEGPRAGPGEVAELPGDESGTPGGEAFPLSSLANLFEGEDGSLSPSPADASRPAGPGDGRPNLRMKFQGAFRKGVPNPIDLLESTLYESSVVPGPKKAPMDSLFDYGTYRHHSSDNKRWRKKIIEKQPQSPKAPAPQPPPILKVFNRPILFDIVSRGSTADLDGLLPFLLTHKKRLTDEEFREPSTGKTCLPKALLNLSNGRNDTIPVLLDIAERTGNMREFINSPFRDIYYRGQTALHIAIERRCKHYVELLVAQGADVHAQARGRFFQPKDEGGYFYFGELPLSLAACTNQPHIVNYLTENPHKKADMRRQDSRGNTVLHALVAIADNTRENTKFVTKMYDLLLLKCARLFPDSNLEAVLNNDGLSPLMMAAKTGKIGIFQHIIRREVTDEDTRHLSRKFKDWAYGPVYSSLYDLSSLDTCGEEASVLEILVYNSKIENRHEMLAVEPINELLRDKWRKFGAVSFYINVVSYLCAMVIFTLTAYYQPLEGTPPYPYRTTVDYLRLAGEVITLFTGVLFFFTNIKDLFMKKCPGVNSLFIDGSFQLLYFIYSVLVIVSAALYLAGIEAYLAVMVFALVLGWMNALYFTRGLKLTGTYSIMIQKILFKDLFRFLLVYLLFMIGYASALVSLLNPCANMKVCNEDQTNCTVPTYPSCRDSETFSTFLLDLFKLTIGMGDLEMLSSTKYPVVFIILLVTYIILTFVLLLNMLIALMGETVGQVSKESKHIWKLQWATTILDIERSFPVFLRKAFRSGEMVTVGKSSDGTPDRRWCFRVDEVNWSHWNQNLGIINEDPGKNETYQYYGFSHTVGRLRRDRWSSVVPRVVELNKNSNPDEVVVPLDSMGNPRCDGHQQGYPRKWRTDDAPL
pIC50: −log10 of the molar value.
Exercise: state measured pIC50 for each of the molecules provided.

query: Suppose we examine the molecule CC(C)c1cccc(C2(c3nc4c(c(=O)[nH]3)CN(C(=O)C(O)c3cccc(Cl)c3F)CC4)CC2)c1 (stereo not drawn) ; what pIC50 value has been reported?
result: > 8.00

query: Suppose we examine the molecule O=C([C@H](O)c1cccc(Cl)c1)N1CCCc2nc(C3(c4cccc(Cl)c4)CC3)[nH]c(=O)c2C1 ; what pIC50 value has been reported?
result: > 8.00

query: Suppose we examine the molecule CC(C)Cc1cccc(C2(c3nc4c(c(=O)[nH]3)CN(C(=O)[C@H](O)c3cccc(C(F)(F)F)c3)CCC4)CC2)c1 ; what pIC50 value has been reported?
result: > 8.52

query: Suppose we examine the molecule CS(=O)(=O)c1cccc(-c2cccc(C3(c4nc5c(c(=O)[nH]4)CN(C(=O)[C@H](O)c4cccc(C(F)(F)F)c4)CCC5)CC3)c2)c1 ; what pIC50 value has been reported?
result: > 8.52

query: Suppose we examine the molecule O=C([C@H](O)c1cccc(-c2cc(Cl)cc(OC(F)(F)F)c2)c1)N1CCCc2nc(C3(c4cccc(Cl)c4)CC3)[nH]c(=O)c2C1 ; what pIC50 value has been reported?
result: > 8.00

query: Suppose we examine the molecule O=C(C(O)c1cncc(-c2cccc(Cl)c2)c1)N1CCc2nc(C3(c4ccccc4)CC3)[nH]c(=O)c2C1 (stereo not drawn) ; what pIC50 value has been reported?
result: > 8.00

query: Suppose we examine the molecule O=C([C@H](O)c1cccc(Cl)c1)N1CCCc2nc(C3(c4cccc(-c5cc6ccccc6o5)c4)CC3)[nH]c(=O)c2C1 ; what pIC50 value has been reported?
result: > 8.52

query: Suppose we examine the molecule O=C([C@H](O)c1cccc(-c2ccc3c(c2)OC(F)(F)O3)c1)N1CCCc2nc(C3(c4cccc(Cl)c4)CC3)[nH]c(=O)c2C1 ; what pIC50 value has been reported?
result: > 8.52

query: Suppose we examine the molecule O=C(C(O)c1cccc(-c2cnc3ccccc3c2)c1)N1CCCc2nc(C3(c4ccccc4)CC3)[nH]c(=O)c2C1 (stereo not drawn) ; what pIC50 value has been reported?
result: > 8.00

query: Suppose we examine the molecule O=C(Cc1cccc(-c2ccc(OC(F)(F)F)cc2)c1)N1CCCc2nc(C3(c4ccccc4)CC3)[nH]c(=O)c2C1 ; what pIC50 value has been reported?
result: > 8.00

query: Suppose we examine the molecule O=C(C(O)c1cccc(-c2ccc(-c3ccc(Cl)cc3)cc2)c1)N1CCc2nc(C3(c4ccccc4)CC3)[nH]c(=O)c2C1 (stereo not drawn) ; what pIC50 value has been reported?
result: > 8.00

query: Suppose we examine the molecule CC(C)c1csc(C2(c3nc4c(c(=O)[nH]3)CN(C(=O)[C@H](O)c3cccc(-c5cccc(C(F)(F)F)c5)c3)CCC4)CC2)c1 ; what pIC50 value has been reported?
result: > 8.00

query: Suppose we examine the molecule O=C([C@H](O)c1cccc(-c2ccc(F)c(Cl)c2)c1)N1CCc2nc(C3(c4ccccc4)CC3)[nH]c(=O)c2C1 ; what pIC50 value has been reported?
result: > 8.52

query: Suppose we examine the molecule O=C([C@H](O)c1cccc(-c2ccc(Cl)c(Cl)c2)c1)N1CCCc2nc(C3(c4ccccc4)CC3)[nH]c(=O)c2C1 ; what pIC50 value has been reported?
result: > 8.52

query: Suppose we examine the molecule CC(C)c1cccc(-c2cccc([C@@H](O)C(=O)N3CCCc4nc(C5(c6ccccc6)CC5)[nH]c(=O)c4C3)c2)c1 ; what pIC50 value has been reported?
result: > 8.52

query: Suppose we examine the molecule CC(C)c1csc(C2(c3nc4c(c(=O)[nH]3)CN(C(=O)[C@H](O)c3cccc(Cl)c3)CC4)CC2)c1 ; what pIC50 value has been reported?
result: > 8.00

query: Suppose we examine the molecule CC(C)(C)c1cccc(-c2cccc([C@@H](O)C(=O)N3CCCc4c(nc(C5(c6ccccc6)CC5)[nH]c4=O)C3)c2)c1 ; what pIC50 value has been reported?
result: > 8.00

query: Suppose we examine the molecule O=C(Cc1cccc(-c2cccc(C(F)(F)F)c2)c1)N1CCCc2nc(C3(c4cccc(C5CCCCC5)c4)CC3)[nH]c(=O)c2C1 ; what pIC50 value has been reported?
result: > 8.00

query: Suppose we examine the molecule O=C([C@H](O)c1cccc(Cl)c1)N1CCCc2nc(C3(c4cccc(-c5cnsc5)c4)CC3)[nH]c(=O)c2C1 ; what pIC50 value has been reported?
result: > 8.52

query: Suppose we examine the molecule O=C(C(O)c1cccc(Cl)c1F)N1CCCc2nc(C3(c4cncc(-c5ccccc5)c4)CC3)[nH]c(=O)c2C1 (stereo not drawn) ; what pIC50 value has been reported?
result: > 8.52

query: Suppose we examine the molecule CC(C)c1cncc(C2(c3nc4c(c(=O)[nH]3)CN(C(=O)[C@H](O)c3cccc(-c5ccc(C(F)(F)F)cc5)c3)CC4)CC2)c1 ; what pIC50 value has been reported?
result: > 8.00

query: Suppose we examine the molecule O=C([C@H](O)c1cccc(-c2ccc(Cl)c(OC(F)(F)F)c2)c1)N1CCc2nc(C3(c4ccccc4)CC3)[nH]c(=O)c2C1 ; what pIC50 value has been reported?
result: > 8.00

query: Suppose we examine the molecule O=C(C(O)c1cccc(-c2cc(F)cc(Cl)c2)c1)N1CCc2nc(C3(c4ccccc4)CC3)[nH]c(=O)c2C1 (stereo not drawn) ; what pIC50 value has been reported?
result: > 8.00

query: Suppose we examine the molecule CC(C)c1cccc(-c2cccc([C@@H](O)C(=O)N3CCCc4nc(C5(c6cccs6)CC5)[nH]c(=O)c4C3)c2)c1 ; what pIC50 value has been reported?
result: > 8.00

query: Suppose we examine the molecule O=C([C@H](O)c1cccc(-c2cc(F)cc(Cl)c2)c1)N1CCCc2nc(C3(c4cccc(Cl)c4)CC3)[nH]c(=O)c2C1 ; what pIC50 value has been reported?
result: > 8.52

query: Suppose we examine the molecule CC(C)c1cncc(C2(c3nc4c(c(=O)[nH]3)CN(C(=O)[C@H](O)c3cccc(-c5cccc(Cl)c5)c3)CCC4)CC2)c1 ; what pIC50 value has been reported?
result: > 8.52

query: Suppose we examine the molecule O=C([C@H](O)c1cccc(-c2cc(Cl)cc(Cl)c2)c1)N1CCc2nc(C3(c4ccccc4)CC3)[nH]c(=O)c2C1 ; what pIC50 value has been reported?
result: > 8.00
